system_tested: GCase (Homo sapiens, UniProt P04062)
Construct: endogenous in cells; host or cells: HeLa cells
test_name: activation of GCase in a live cell PFB assay in HELA cells
Assay type: cell-based
experimental_parameters: activation of GCase, EC50 ranges
Description: Exemplary compounds were evaluated for activation of GCase in a live cell PFB assay in HELA cells (essentially as described in Ysselstein et al., “LRRK2 kinase activity regulates lysosomal glucocerebrosidase in neurons derived from Parkinson's disease patients” Nature Communications (2019) 10:5570). […] EC50 ranges: A: <10 μM; B: >10-50 μM; C: >50-100 μM; D: >100 μM.
pEC50: −log10 of the molar value.
attribute_measured: pEC50

# pEC50 lookup, item Cn1c(N2CCC3(CC2)CC(=O)N(c2cc(C(F)(F)F)ccn2)C3)nc2c(cnn2CC(F)F)c1=O [Cmpd 922]
> 5.00

# pEC50 lookup, item O=C1N(c2cc(C(F)(F)F)ccn2)C2(CC2)CC12CCN(c1cnc3cnn(CC(F)F)c3n1)CC2 [Cmpd 311]
4.30 to 5.00

# pEC50 lookup, item FC(F)(F)c1ncc(N2CC3(CCN(c4ncc5cnn(C6COC6)c5n4)C3)C2)cn1 [Cmpd 434]
4.30 to 5.00

# pEC50 lookup, item Cc1nc(N2CCC3(CCN(c4ncc5cnn(CC(F)(F)F)c5n4)CC3)C2)cc(C(F)(F)F)n1 [Cmpd 572]
> 5.00

# pEC50 lookup, item CC1(C)N(c2cc(C(F)(F)F)ccn2)C(=O)CC12CCN(c1cnc3cnn(CC(F)F)c3n1)CC2 [Cmpd 662]
4.30 to 5.00

# pEC50 lookup, item CCOc1nn(C2COC2)c2nc(N3CCC4(CC3)CC(=O)N(c3ccc(C(F)(F)F)nc3)C4)cnc12 [Cmpd 951]
> 5.00

# pEC50 lookup, item O=C1CC2(CCN(c3cnc4cnn(C5COC5)c4n3)CC2)CN1c1ccnc(C(F)(F)F)n1 [Cmpd 907]
> 5.00

====

Please provide measured pEC50 for the entries that follow.
system_tested: GCase (Homo sapiens, UniProt P04062)
Construct: endogenous in cells; host or cells: HeLa cells
test_name: activation of GCase in a live cell PFB assay in HELA cells
Format: cell-based
experimental_parameters: activation of GCase, EC50 ranges
pEC50: −log10 of the molar value.

# pEC50 lookup, item "COc1nn(C2COC2)c2nc(N3CCC4(CC3)CC(=O)N(c3ccc(C(F)(F)F)nc3)C4)cnc12"
< 4.00

# pEC50 lookup, item "CCN1C(=O)N(c2ccc(C(F)(F)F)nc2)C(=O)C12CCN(c1cnc3cnn(CC(F)F)c3n1)CC2"
> 5.00

# pEC50 lookup, item "FC(F)(F)c1ccnc(N2CCC3(CC2)CCN(c2cncc(-c4nncs4)n2)C3)c1"
4.30 to 5.00

# pEC50 lookup, item "Fc1ncc(N2CCC3(CCN(c4cnc5cnn(CC(F)F)c5n4)CC3)C2)nc1C(F)(F)F"
> 5.00

# pEC50 lookup, item "Cc1cc(CN2CC3(CCN(c4cnc5cnn(CC(F)F)c5n4)CC3)CC2=O)on1"
4.30 to 5.00

# pEC50 lookup, item FC(F)(F)Cn1ncc2ncc(N3CCC4(CCN(c5cnc(C(F)(F)F)nc5)C4)C3)nc21 (stereo not drawn)
> 5.00

# pEC50 lookup, item "O=C1N(c2cccc(C(F)(F)F)n2)CCC12CCN(c1cnc3cnn(CC(F)F)c3n1)CC2"
4.30 to 5.00

# pEC50 lookup, item "FC(F)Cn1ncc2ncc(N3CCC4(CN(c5ccc(C(F)(F)F)nn5)C4)C3)nc21"
4.00 to 4.30

# pEC50 lookup, item "CN1C(=O)N(c2ccc(C(F)(F)F)nc2)C(=O)C12CCN(c1cnc3cnn(CC(F)F)c3n1)CC2"
> 5.00

# pEC50 lookup, item "O=C1CC2(CCN(c3ncc4cnn(CC(F)F)c4n3)CC2)CN1c1nccc(C(F)(F)F)n1"
> 5.00

# pEC50 lookup, item "FC(F)Cn1ncc2ncc(N3CCC4(CC3)CC(Oc3ccnc(C(F)(F)F)c3)C4)nc21"
> 5.00

# pEC50 lookup, item "O=C1CC2(CCN(c3cnc4cnn(CC(F)F)c4n3)CC2)CN1Cc1cncc(Cl)c1"
4.30 to 5.00

# pEC50 lookup, item "O=C1N(c2ncc(C(F)(F)F)cc2F)CCC12CCN(c1cnc3cnn(CC(F)F)c3n1)CC2"
< 4.00

# pEC50 lookup, item "FC(F)(F)c1cc(N2CC3(CCN(c4ncc5cnn(C6COC6)c5n4)C3)C2)ccn1"
4.30 to 5.00

# pEC50 lookup, item FC(F)(F)c1ccncc1OC1CC2(CCCN(c3cncc(-c4nncs4)n3)C2)C1 (stereo not drawn)
> 5.00

# pEC50 lookup, item "O=C(c1ccc(C(F)(F)F)cn1)N1CC2(CCN(c3cnc4cnn(CC(F)F)c4n3)C2)C1"
< 4.00

# pEC50 lookup, item "Cc1cnc(C(F)(F)F)nc1N1CC2(CCN(c3cnc4cnn(CC(F)F)c4n3)CC2)CC1=O"
< 4.00

# pEC50 lookup, item CCn1c(N2CCC3(CCN(c4ccnc(C(F)(F)F)c4)C3)C2)nc2c(cnn2CC(F)F)c1=O (stereo not drawn)
4.30 to 5.00

# pEC50 lookup, item "CC[C@H]1N(c2ccnc(C(F)(F)F)c2)C(=O)CC12CCN(c1cnc3cnn(CC(F)F)c3n1)CC2"
4.30 to 5.00

# pEC50 lookup, item CC1CC2(CCN(c3cccc(C(F)(F)F)n3)C2=O)CCN1c1cnc2cnn(CC(F)F)c2n1 (stereo not drawn)
> 5.00

# pEC50 lookup, item "O=C1N(Cc2cc(F)cc(F)c2)CCC12CCN(c1cnc3cnn(CC(F)F)c3n1)CC2"
> 5.00

# pEC50 lookup, item "Cc1nn(CC(F)F)c2nc(N3CCC4(CC3)CCN(c3cncc(C(F)(F)F)n3)C4=O)cnc12"
4.30 to 5.00

# pEC50 lookup, item "O=C1CC2(CCN(c3cnc4cnn(CC(F)F)c4n3)CC2)CN1Cc1ccnc(C(F)(F)F)n1"
> 5.00

# pEC50 lookup, item FC(F)(F)c1ncc(N2CCC3(CCN(c4ncc5cnn(C6COC6)c5n4)C3)C2)cn1 (stereo not drawn)
> 5.00

====

system_tested: GCase (Homo sapiens, UniProt P04062)
Construct: endogenous in cells; host or cells: HeLa cells
Sequence (P04062 40-536): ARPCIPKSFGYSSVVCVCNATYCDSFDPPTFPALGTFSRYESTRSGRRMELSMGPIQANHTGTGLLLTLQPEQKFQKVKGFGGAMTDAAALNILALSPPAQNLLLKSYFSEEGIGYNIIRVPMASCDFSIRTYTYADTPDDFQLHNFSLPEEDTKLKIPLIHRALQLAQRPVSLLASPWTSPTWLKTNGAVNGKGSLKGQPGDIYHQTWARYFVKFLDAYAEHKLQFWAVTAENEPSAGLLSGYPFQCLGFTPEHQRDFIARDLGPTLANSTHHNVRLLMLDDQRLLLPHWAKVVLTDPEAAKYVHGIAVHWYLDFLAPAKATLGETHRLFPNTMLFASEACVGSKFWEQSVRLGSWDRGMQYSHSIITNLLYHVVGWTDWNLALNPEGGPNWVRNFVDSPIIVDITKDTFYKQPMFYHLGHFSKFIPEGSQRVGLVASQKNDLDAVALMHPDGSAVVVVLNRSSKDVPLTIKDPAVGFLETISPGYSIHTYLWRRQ
test_name: activation of GCase in a live cell PFB assay in HELA cells
Assay type: cell-based
experimental_parameters: EC50 given as range classes
pEC50: −log10 of the molar value.
attribute_measured: pEC50

# pEC50 lookup, item Cc1cc(N2CC3(CCN(c4cnc5cnn(CC(F)F)c5n4)C3)C2)nc(C(F)(F)F)n1 [Cmpd 404]
> 5.00

# pEC50 lookup, item FC(F)Cn1ncc2ncc(N3CCC4(CCN(c5ccnc(C(F)(F)F)c5)CC4)CC3)nc21 [Cmpd 812]
> 5.00

# pEC50 lookup, item Cc1cnc(N2CCC3(CCN(c4cnc5cnn(CC(F)F)c5n4)CC3)C2)nc1C(F)(F)F [Cmpd 785]
< 4.00

# pEC50 lookup, item Cc1nn(C2COC2)c2nc(N3CCC4(CN(c5cnc(C(F)(F)F)nc5)C4)C3)cnc12 [Cmpd 428]
> 5.00

====

system_tested: GCase (Homo sapiens, UniProt P04062)
Construct: endogenous in cells; host or cells: HeLa cells
test_name: activation of GCase in a live cell PFB assay in HELA cells
Format: cell-based
experimental_parameters: activation of GCase, EC50 ranges
pEC50: −log10 of the molar value.
attribute_measured: pEC50

# pEC50 lookup, item Cc1cc(N2CC3(CCN(c4cnc5cnn(CC(F)F)c5n4)CC3)C2)nc(C(F)(F)F)n1 [Cmpd 527]
> 5.00

# pEC50 lookup, item CCN1C(=O)N(c2cnc3cnn(CC(F)F)c3n2)C(=O)C12CCN(c1ccc(C(F)(F)F)cn1)CC2 [Cmpd 860]
4.30 to 5.00

# pEC50 lookup, item CCc1ncc(N2CC3(CCN(c4cnc5cnn(CC(F)F)c5n4)C3)C2)cn1 [Cmpd 462]
4.30 to 5.00

# pEC50 lookup, item Cc1nn(CC(F)F)c2nc(N3CCC4(CCN(c5ccnc(C(F)(F)F)c5)C4)CC3)n(C)c(=O)c12 [Cmpd 1104]
4.30 to 5.00

# pEC50 lookup, item FC(F)Cn1ncc2ncc(N3CC4(CCN(c5ccc(C(F)(F)F)cn5)CC4)C3)nc21 [Compound 124]
> 5.00

# pEC50 lookup, item Cc1nc(N2CC3(CCN(c4cnc5cnn(C6COC6)c5n4)C3)C2)cc(C(F)(F)F)n1 [Cmpd 1063]
4.30 to 5.00

# pEC50 lookup, item Cc1cc(N2CC3(CCN(c4cnc5cnn([C@H]6CCOC6)c5n4)C3)C2)nc(C(F)(F)F)n1 [Cmpd 1146]
4.30 to 5.00

# pEC50 lookup, item FC(F)Cn1ncc2ncc(N3CCCC4(CC(Oc5cccnc5C(F)(F)F)C4)C3)nc21 (centres unmarked) [Compound 4]
> 5.00

# pEC50 lookup, item FC(F)(F)c1ccc(N2CCC3(CCN(c4cncc(-c5ccccc5)n4)CC3)C2)cn1 [Cmpd 251]
> 5.00

# pEC50 lookup, item Cc1ccc(N2CCC3(CCN(c4cnc5cnn(CC(F)F)c5n4)CC3)C2)nn1 [Cmpd 757]
> 5.00

# pEC50 lookup, item O=C1CC2(CCN1c1ccc(C(F)(F)F)cn1)CN(c1cnc3cnn(CC(F)F)c3n1)C2 [Cmpd 912]
4.30 to 5.00

# pEC50 lookup, item Cc1nc(N2CC3(CCN(c4cnc5cnn(CC(F)F)c5c4)C3)C2)cc(C(F)(F)F)n1 [Cmpd 636]
> 5.00

# pEC50 lookup, item CCOc1ccc(CN2CCC3(CCN(c4cnc5cnn(CC(F)F)c5n4)CC3)C2=O)cn1 [Cmpd 356]
4.30 to 5.00

# pEC50 lookup, item FC(F)Cn1ncc2ncc(N3CC[C@]4(CCN(c5cnc(C(F)(F)F)nc5)C4)C3)nc21 [Cmpd 1133]
4.30 to 5.00

# pEC50 lookup, item COc1nc(N2CCC3(CC2)CCN(c2cc(C(F)(F)F)ccn2)C3=O)nc2c1cnn2CC(F)F [Cmpd 303]
> 5.00

# pEC50 lookup, item O=C([C@H]1CCn2c1nccc2=O)N1CCC2(C1)CN(c1ccnc(C(F)(F)F)c1)C2 [Cmpd 1061]
4.00 to 4.30

# pEC50 lookup, item CC(c1ccc(C(F)(F)F)nc1)N1CC2(CCN(c3cnc4cnn(CC(F)F)c4n3)CC2)CC1=O (centres unmarked) [Cmpd 965]
4.30 to 5.00

# pEC50 lookup, item O=C(c1cnc(C(F)(F)F)nc1)N1CCC2(CC1)CN(c1cnc3cnn(CC(F)F)c3n1)C2 [Cmpd 329]
4.30 to 5.00

# pEC50 lookup, item Cn1c(N2CCC3(CCN(c4nccc(C(F)(F)F)n4)C3)CC2)nc2c(cnn2C2COC2)c1=O [Cmpd 1057]
4.30 to 5.00

# pEC50 lookup, item O=C1N(c2cnc3cnn(CC(F)F)c3n2)CCC12CCN(c1ccnc(C(F)(F)F)c1)C2 (centres unmarked) [Cmpd 518]
< 4.00

# pEC50 lookup, item Cc1ncc(N2CC3(CCN(c4cnc5cnn([C@H]6CCOC6)c5n4)C3)C2)c(C(F)(F)F)n1 [Cmpd 652]
< 4.00

# pEC50 lookup, item FC(F)Cn1ncc2ncc(N3CCC4(CC3)CC(Oc3cnccc3C(F)(F)F)C4)nc21 [Cmpd 707]
4.30 to 5.00

# pEC50 lookup, item O=C1CC2(CCN(c3cnc4cnn(CC(F)F)c4n3)CC2)CN1c1ccc(Cl)nc1 [Cmpd 891]
4.30 to 5.00

# pEC50 lookup, item Cc1nn(CC(F)F)c2nc(N3CCC4(CC3)CCN(c3cc(C(F)(F)F)ccn3)C4=O)cnc12 [Compound 168]
> 5.00

# pEC50 lookup, item CC(C(F)F)n1ncc2ncc(N3CCC4(CCN(c5cc(C(F)(F)F)ccn5)C4)CC3)nc21 (centres unmarked) [Cmpd 752]
> 5.00

# pEC50 lookup, item O=C1CC2(CCN(c3cnc4cnn(C5COC5)c4n3)CC2)CN1c1ccc(C(F)(F)F)nc1 [Cmpd 856]
4.30 to 5.00
